// provenance: PubChem BioAssay (NCI)

Tested on: OVCAR-8 ovarian
Measurement Description: NCI-60 one-dose screen, 48 h (100 = growth as untreated, 0 = no growth, -100 = all killed)
Test Settings: 10 µM unless noted
The panel holds about 83,000 compounds, 20% with a hit somewhere; the sample as a whole holds those more often.

- Compound: "O=C(/C=C/c1ccc(C(F)(F)F)cc1)c1ccc(Nc2nc(NCCO)nc(Nc3ccc(Cl)cc3)n2)cc1"
  growth / %: 52.6
- Compound: "COC(=O)c1ccc(NC(=O)CSc2nc3ccccc3c(=O)n2-c2ccccc2)cc1"
  growth / %: 101
- Compound: "CN1CCN(Cc2ccc(NC(=O)c3[nH]ncc3Nc3cc(OC4CCCC4)ncn3)cc2)CC1"
  growth / %: 42.6
- Compound: "O=C(NCc1ccco1)C1CN(c2ccc(Cl)cc2)N(c2ccc(Cl)cc2)C1=O (stereo unspecified)"
  growth / %: 66.4
- Compound: "NCCNc1nc2ccc(F)cc2c2c(=O)c3cc(F)ccc3sc12"
  growth / %: 29.9
- Compound: "COc1ccc(Cn2c(Br)c3c(c2-c2cc(OC)c(OC)c(OC)c2)CCc2sc(NC(=O)c4ccc(OC)cc4)nc2-3)cc1"
  growth / %: 96
